These entries and their values trace back to patent US7375083B2.

Please go through the items and note down their hydrocodone plus hydromorphone concentration.
- TEST_DESCRIPTION: Intranasal bioavailability of hydrocodone conjugates in rats, LC/MS/MS
- CONDITION_PARAMETERS: intranasal, 1 mg/kg dose, 15 Minutes
Where a SMILES comes first, the peptide text is derived from it. The star is where a group is joined. X1 = COc1ccc2c3c1O[C@H]1C(O*)=CC[C@H]4[C@@H](C2)N(C)CC[C@]314
Answer by giving the amount and then stating its unit.

Report measured hydrocodone plus hydromorphone concentration; entry is CC[C@H](C)[C@H](NC(=O)[C@H](Cc1ccc(O)cc1)NC(=O)[C@@H](N)Cc1ccc(O)cc1)C(=O)OC1=CC[C@H]2[C@H]3Cc4ccc(OC)c5c4[C@@]2(CCN3C)[C@H]1O5 [YYI-HC, Tyr-Tyr-Ile-Hydrocodone]
17 ng/mL

Report measured hydrocodone plus hydromorphone concentration; entry is COc1ccc2c3c1O[C@H]1C(OC(=O)[C@H](Cc4ccccc4)NC(=O)[C@H](Cc4ccccc4)NC(=O)[C@H](Cc4ccccc4)NC(=O)[C@H](CCC(=O)O)NC(=O)[C@@H](N)CCC(=O)O)=CC[C@H]4[C@@H](C2)N(C)CC[C@]314 [EEFFF[SEQ ID NO: 3]-HC] (H-EEFFF-X1)
21 ng/mL

Batch request: hydrocodone plus hydromorphone concentration per item, same order as input.
1. CC[C@H](C)[C@H](NC(=O)[C@H](CC(=O)O)NC(=O)[C@@H](N)CC(=O)O)C(=O)OC1=CC[C@H]2[C@H]3Cc4ccc(OC)c5c4[C@@]2(CCN3C)[C@H]1O5 [DDI-HC, Asp-Asp-Ile-Hydrocodone]
2. CC[C@H](C)[C@H](NC(=O)[C@H](Cc1ccccc1)NC(=O)[C@H](Cc1ccccc1)NC(=O)[C@H](Cc1ccc(O)cc1)NC(=O)[C@@H](N)Cc1ccc(O)cc1)C(=O)OC1=CC[C@H]2[C@H]3Cc4ccc(OC)c5c4[C@@]2(CCN3C)[C@H]1O5 [YYFFI[SEQ ID NO: 3]-HC] (H-YYFFI-X1)

1: 121 ng/mL; 2: 27 ng/mL

* * *

- TEST_DESCRIPTION: Oral bioavailability of hydrocodone conjugates in rats, LC/MS/MS
- CONDITION_PARAMETERS: male, Sprague-Dawley, rat, plasma, po, 5 mg/kg
PROPERTY_LABEL: concentration at 0.1 h (ng/mL)
Answers are plain numbers, in ng/mL.

Report measured concentration at 0.1 h; entry is COc1ccc2c3c1O[C@H]1C(=O)CC[C@H]4[C@@H](C2)N(C)CC[C@]314 [Hydrocodone, reference compound]
629

* * *

- TEST_DESCRIPTION: Oral bioavailability of hydrocodone conjugates in rats, LC/MS/MS
- CONDITION_PARAMETERS: oral, 1 mg/kg dose, 5 Hours
Where a SMILES comes first, the peptide text is derived from it. The star is where a group is joined. X1 = COc1ccc2c3c1O[C@H]1C(O*)=CC[C@H]4[C@@H](C2)N(C)CC[C@]314
Please go through the items and note down their hydrocodone plus hydromorphone concentration.
Give bare numbers, in ng/mL.

Report measured hydrocodone plus hydromorphone concentration; entry is CC[C@H](C)[C@H](NC(=O)[C@H](CC(=O)O)NC(=O)[C@@H](N)CC(=O)O)C(=O)OC1=CC[C@H]2[C@H]3Cc4ccc(OC)c5c4[C@@]2(CCN3C)[C@H]1O5 [DDI-HC, Asp-Asp-Ile-Hydrocodone]
0

Report measured hydrocodone plus hydromorphone concentration; entry is CC[C@H](C)[C@H](NC(=O)[C@H](Cc1ccccc1)NC(=O)[C@H](Cc1ccccc1)NC(=O)[C@H](Cc1ccc(O)cc1)NC(=O)[C@@H](N)Cc1ccc(O)cc1)C(=O)OC1=CC[C@H]2[C@H]3Cc4ccc(OC)c5c4[C@@]2(CCN3C)[C@H]1O5 [YYFFI[SEQ ID NO: 8]-HC] (H-YYFFI-X1)
1.1

Report measured hydrocodone plus hydromorphone concentration; entry is CC[C@H](C)[C@H](NC(=O)[C@H](Cc1ccccc1)NC(=O)[C@H](Cc1ccccc1)NC(=O)[C@H](CCC(=O)O)NC(=O)[C@@H](N)CCC(=O)O)C(=O)OC1=CC[C@H]2[C@H]3Cc4ccc(OC)c5c4[C@@]2(CCN3C)[C@H]1O5 [EEFFI[SEQ ID NO: 5]-HC] (H-EEFFI-X1)
0

Report measured hydrocodone plus hydromorphone concentration; entry is CC[C@H](C)[C@H](NC(=O)[C@H](Cc1ccc(O)cc1)NC(=O)[C@@H](N)Cc1ccc(O)cc1)C(=O)OC1=CC[C@H]2[C@H]3Cc4ccc(OC)c5c4[C@@]2(CCN3C)[C@H]1O5 [YYI-HC, Tyr-Tyr-Ile-Hydrocodone]
1.1

Proceed to the following item.
Report measured hydrocodone plus hydromorphone concentration; entry is COc1ccc2c3c1O[C@H]1C(OC(=O)[C@H](Cc4ccccc4)NC(=O)[C@H](Cc4ccccc4)NC(=O)[C@H](Cc4ccccc4)NC(=O)[C@H](CCC(=O)O)NC(=O)[C@@H](N)CCC(=O)O)=CC[C@H]4[C@@H](C2)N(C)CC[C@]314 [EEFFF[SEQ ID NO: 3]-HC] (H-EEFFF-X1)
1.2

* * *

- TEST_DESCRIPTION: Intravenous bioavailability of hydrocodone conjugates in rats, LC/MS/MS
- CONDITION_PARAMETERS: intravenous, 1 mg/kg dose, relative to hydrocodone bitartrate
Where a SMILES comes first, the peptide text is derived from it. The star is where a group is joined. X1 = COc1ccc2c3c1O[C@H]1C(O*)=CC[C@H]4[C@@H](C2)N(C)CC[C@]314
PROPERTY_LABEL: Percent HC (AUC) (%)
Give bare numbers, in %.

Report measured Percent HC (AUC); entry is CC[C@H](C)[C@H](NC(=O)[C@H](Cc1ccccc1)NC(=O)[C@H](Cc1ccccc1)NC(=O)[C@H](Cc1ccc(O)cc1)NC(=O)[C@@H](N)Cc1ccc(O)cc1)C(=O)OC1=CC[C@H]2[C@H]3Cc4ccc(OC)c5c4[C@@]2(CCN3C)[C@H]1O5 [YYFFI[SEQ ID NO: 8]-HC] (H-YYFFI-X1)
29

Batch request: Percent HC (AUC) per item, same order as input.
1. CC[C@H](C)[C@H](NC(=O)[C@H](Cc1ccc(O)cc1)NC(=O)[C@@H](N)Cc1ccc(O)cc1)C(=O)OC1=CC[C@H]2[C@H]3Cc4ccc(OC)c5c4[C@@]2(CCN3C)[C@H]1O5 [YYI-HC, Tyr-Tyr-Ile-Hydrocodone]
2. COc1ccc2c3c1O[C@H]1C(OC(=O)[C@H](Cc4ccccc4)NC(=O)[C@H](Cc4ccccc4)NC(=O)[C@H](Cc4ccccc4)NC(=O)[C@H](CCC(=O)O)NC(=O)[C@@H](N)CCC(=O)O)=CC[C@H]4[C@@H](C2)N(C)CC[C@]314 [EEFFF[SEQ ID NO: 3]-HC] (H-EEFFF-X1)
3. CC[C@H](C)[C@H](NC(=O)[C@H](Cc1ccccc1)NC(=O)[C@H](Cc1ccccc1)NC(=O)[C@H](CCC(=O)O)NC(=O)[C@@H](N)CCC(=O)O)C(=O)OC1=CC[C@H]2[C@H]3Cc4ccc(OC)c5c4[C@@]2(CCN3C)[C@H]1O5 [EEFFI[SEQ ID NO: 5]-HC] (H-EEFFI-X1)

7
62
38

* * *

- TEST_DESCRIPTION: Oral pharmacokinetics in rats, plasma d-amphetamine by ELISA
- CONDITION_PARAMETERS: Oral, relative to amphetamine (first value where two are given)
Percent Cmax strictly under 70% means true (1); at 70% or over means false (0).

Find out if reported Percent Cmax for `C[C@@H](Cc1ccccc1)NC(=O)[C@@H](N)CCCCN` is less than 70%
true (1)

Find out if reported Percent Cmax for CC(Cc1ccccc1)NC(=O)[C@H](Cc1ccccc1)NC(=O)[C@H](CCC(=O)O)NC(=O)[C@@H](N)CCC(=O)O (stereo partly drawn) is less than 70%
false (0)

Find out if reported Percent Cmax for CC(C)CC(N)C(=O)NC(C)Cc1ccccc1 (stereo not drawn) is less than 70%
false (0)

Find out if reported Percent Cmax for CC(C)C[C@H](N)C(=O)N[C@@H](CCC(=O)O)C(=O)NC(C)Cc1ccccc1 (stereo partly drawn) is less than 70%
true (1)

Find out if reported Percent Cmax for CC(Cc1ccccc1)NC(=O)[C@H](Cc1ccccc1)NC(=O)[C@@H](N)Cc1ccccc1 (stereo partly drawn) is less than 70%
true (1)

Find out if reported Percent Cmax for CC(Cc1ccccc1)NC(=O)C(O)C(O)C(O)C(O)CO (stereo not drawn) [Gulonate-Amp] is less than 70%
true (1)

Find out if reported Percent Cmax for CC(Cc1ccccc1)NC(=O)[C@H](CCC(=O)O)NC(=O)[C@@H](N)CCC(=O)O (stereo partly drawn) is less than 70%
false (0)

Find out if reported Percent Cmax for CC(Cc1ccccc1)NC(=O)CNC(=O)CN (stereo not drawn) is less than 70%
false (0)
